IC50 values by entry
# experimentalTarget: human recombinant 5-HT2C receptor (Homo sapiens, UniProt P28335)
# Construct: expressed in transfected cells
# Sequence (P28335 33-458): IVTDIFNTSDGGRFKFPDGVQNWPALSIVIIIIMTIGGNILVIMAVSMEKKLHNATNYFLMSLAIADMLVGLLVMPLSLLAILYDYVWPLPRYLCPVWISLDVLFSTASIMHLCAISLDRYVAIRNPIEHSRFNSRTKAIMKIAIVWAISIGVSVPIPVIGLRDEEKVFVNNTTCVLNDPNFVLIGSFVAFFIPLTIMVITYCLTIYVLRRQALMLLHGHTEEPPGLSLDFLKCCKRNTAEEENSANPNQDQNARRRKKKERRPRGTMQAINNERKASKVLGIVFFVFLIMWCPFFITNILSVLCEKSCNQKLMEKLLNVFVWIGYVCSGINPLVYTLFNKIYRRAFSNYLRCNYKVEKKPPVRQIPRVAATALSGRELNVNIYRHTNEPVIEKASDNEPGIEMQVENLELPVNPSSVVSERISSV
# protocolNotes: [3H]Mesulergine binding to serotonin 5-HT2C receptor
# assaySetup: [3H]Mesulergine (1 nM); membranes from CHO-K1 cell line expressing human recombinant 5-HT2C receptor; 30 min at 37° C.; read-out: Affinity for 5-HT2C receptor (IC50)
Your answer should be a plain number; it is taken to be in nM.

Here's what some known entries look like.
{"compound": "CN1CCN(c2nc(Nc3ccc(F)cc3)c3cnn(C)c3n2)CC1 [Comp. 25]", "valueReported": 85.8}
{"compound": "COc1cccc(Nc2nc(N3CCN(c4ccc(F)cc4)CC3)nc3c2cnn3C)c1 [Comp. 33]", "valueReported": 1080}
{"compound": "Cc1ccc(CNc2nc(Nc3ccc(F)cc3)c3cnn(C)c3n2)cc1 [Comp. 17]", "valueReported": 5830}
{"compound": "CCN(CC)c1nc(Nc2cccc(OC)c2)c2cnn(C)c2n1 [Comp. 31]", "valueReported": 5420}
{"compound": "Cn1ncc2c(Nc3ccc(F)cc3)nc(NCc3ccccc3)nc21 [Comp. 16]", "valueReported": 2590}

Data request: Look up IC50 of COc1ccccc1N1CCN(c2nc(Nc3ccc(F)cc3)c3cnn(C)c3n2)CC1 [Comp. 30] and report it.
Data returned: 1720

Data request: Look up IC50 of CN(C)c1nc(Nc2ccc(F)cc2)c2cnn(C)c2n1 [Comp. 19] and report it.
Data returned: 4030

Data request: Look up IC50 of CN1CCN(c2nc(Nc3ccc(Cl)cc3)c3cnn(C)c3n2)CC1 [Comp. 6] and report it.
Data returned: 29.4

====

# experimentalTarget: human recombinant 5-HT2C receptor (Homo sapiens)
# Construct: expressed in transfected cells
# Sequence (P28335 33-458): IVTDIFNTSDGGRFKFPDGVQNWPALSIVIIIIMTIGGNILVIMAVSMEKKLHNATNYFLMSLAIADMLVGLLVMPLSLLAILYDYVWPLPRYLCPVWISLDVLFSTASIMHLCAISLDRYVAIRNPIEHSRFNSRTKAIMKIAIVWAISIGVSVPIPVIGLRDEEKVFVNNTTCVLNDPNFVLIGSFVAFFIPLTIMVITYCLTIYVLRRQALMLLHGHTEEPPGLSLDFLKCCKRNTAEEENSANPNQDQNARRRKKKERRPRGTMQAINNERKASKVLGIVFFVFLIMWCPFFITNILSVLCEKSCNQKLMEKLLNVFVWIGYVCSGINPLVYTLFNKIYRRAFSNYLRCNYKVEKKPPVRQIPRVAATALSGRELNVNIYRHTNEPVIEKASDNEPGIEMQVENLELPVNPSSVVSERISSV
# protocolNotes: [3H]Mesulergine binding to serotonin 5-HT2C receptor
# assaySetup: [3H]Mesulergine (1 nM); membranes from CHO-K1 cell line expressing human recombinant 5-HT2C receptor; 30 min at 37° C.; read-out: Affinity for 5-HT2C receptor (IC50)
measuredEndpoint: log10 of IC50 (log10 of the value in nM)
Response schema: value (number) is log10 of IC50 in units of nM.

Here's what some known entries look like.
{"molecule": "CN1CCN(c2nc(Nc3ccccc3)c3cnn(C)c3n2)CC1", "experimentalTarget": "human recombinant 5-HT2C receptor (Homo sapiens)", "measuredEndpoint": "log10 of IC50", "valueReported": 1.94}
{"molecule": "Cn1ncc2c(Nc3ccc(F)cc3)nc(N3CCOCC3)nc21", "experimentalTarget": "human recombinant 5-HT2C receptor (Homo sapiens)", "measuredEndpoint": "log10 of IC50", "valueReported": 3.32}
{"molecule": "Cn1ncc2c(Nc3ccc(F)cc3)nc(N3CCN(Cc4ccccc4)CC3)nc21", "experimentalTarget": "human recombinant 5-HT2C receptor (Homo sapiens)", "measuredEndpoint": "log10 of IC50", "valueReported": 2.92}
{"molecule": "CCN(CC)c1nc(Nc2ccc(Cl)cc2)c2cnn(C)c2n1", "experimentalTarget": "human recombinant 5-HT2C receptor (Homo sapiens)", "measuredEndpoint": "log10 of IC50", "valueReported": 3.00}
{"molecule": "COc1cccc(Nc2nc(N3CCN(C)CC3)nc3c2cnn3C)c1", "experimentalTarget": "human recombinant 5-HT2C receptor (Homo sapiens)", "measuredEndpoint": "log10 of IC50", "valueReported": 0.89}
{"molecule": "Cn1ncc2c(Nc3ccc(F)cc3)nc(N3CCN(c4ccc(F)cc4)CC3)nc21", "experimentalTarget": "human recombinant 5-HT2C receptor (Homo sapiens)", "measuredEndpoint": "log10 of IC50", "valueReported": 2.17}
{"molecule": "CNc1nc(Nc2ccc(F)cc2)c2cnn(C)c2n1", "experimentalTarget": "human recombinant 5-HT2C receptor (Homo sapiens)", "measuredEndpoint": "log10 of IC50", "valueReported": 3.89}
{"molecule": "CC1CC(C)CN(c2nc(Nc3ccc(F)cc3)c3cnn(C)c3n2)C1 (centres unmarked)", "experimentalTarget": "human recombinant 5-HT2C receptor (Homo sapiens)", "measuredEndpoint": "log10 of IC50", "valueReported": 3.58}

Here is the next item to consider.
Data request: Look up log10 of IC50 of "CCN(CC)c1nc(Nc2ccc(C)c(C)c2)c2cnn(C)c2n1" and report it.
Data returned: 3.93
